- assay notes: folding stability dG unfold from chymotrypsin proteolysis; higher = more stable
# folding stability dG unfold listing for each entry below
measurement name: folding stability dG unfold (kcal/mol)

[[record]]
seq = "SAGGSAMGMRPVRREFTGSGMRITVEVVESTSIPTAEIRVLDPEGRLLRERRLPAEEVEREIARLLSAGGSA [r15_940_JUSTAS]"
unit_spec = "kcal/mol"
experimental_value = 1.58

[[record]]
seq = "SAKITIFFPFDAVKEILDLLKENGVEVNIERHPGNPWYSATITRPDPNGKELPIEIMMFPDHGYVQITLSAG [r14_169_TrROS]"
unit_spec = "kcal/mol"
experimental_value = 2.62

[[record]]
seq = "SKKVEIKIKVERNEDGYLTVTIEIRAETEEELLEAAKELAKALFPEDVEIRVEKLPDGTVKITIVVKLPPSA [r9_646_TrROS_Hall]"
unit_spec = "kcal/mol"
experimental_value = 1.9

[[record]]
seq = "SAGGSAGGSETVVIKIEVSPEELEKLKEALEEAGYEVEIRVERDENGKLTVTVTIRLPPGVKPSAGGSAGGS [r12_653_TrROS_Hall]"
unit_spec = "kcal/mol"
experimental_value = 2.57

